target: integrin αVβ3 (Homo sapiens, UniProt P05106+P06756)
Construct: purchased R&D Systems Inc. (Minneapolis, MN, USA)
Sequence (P06756 31-992): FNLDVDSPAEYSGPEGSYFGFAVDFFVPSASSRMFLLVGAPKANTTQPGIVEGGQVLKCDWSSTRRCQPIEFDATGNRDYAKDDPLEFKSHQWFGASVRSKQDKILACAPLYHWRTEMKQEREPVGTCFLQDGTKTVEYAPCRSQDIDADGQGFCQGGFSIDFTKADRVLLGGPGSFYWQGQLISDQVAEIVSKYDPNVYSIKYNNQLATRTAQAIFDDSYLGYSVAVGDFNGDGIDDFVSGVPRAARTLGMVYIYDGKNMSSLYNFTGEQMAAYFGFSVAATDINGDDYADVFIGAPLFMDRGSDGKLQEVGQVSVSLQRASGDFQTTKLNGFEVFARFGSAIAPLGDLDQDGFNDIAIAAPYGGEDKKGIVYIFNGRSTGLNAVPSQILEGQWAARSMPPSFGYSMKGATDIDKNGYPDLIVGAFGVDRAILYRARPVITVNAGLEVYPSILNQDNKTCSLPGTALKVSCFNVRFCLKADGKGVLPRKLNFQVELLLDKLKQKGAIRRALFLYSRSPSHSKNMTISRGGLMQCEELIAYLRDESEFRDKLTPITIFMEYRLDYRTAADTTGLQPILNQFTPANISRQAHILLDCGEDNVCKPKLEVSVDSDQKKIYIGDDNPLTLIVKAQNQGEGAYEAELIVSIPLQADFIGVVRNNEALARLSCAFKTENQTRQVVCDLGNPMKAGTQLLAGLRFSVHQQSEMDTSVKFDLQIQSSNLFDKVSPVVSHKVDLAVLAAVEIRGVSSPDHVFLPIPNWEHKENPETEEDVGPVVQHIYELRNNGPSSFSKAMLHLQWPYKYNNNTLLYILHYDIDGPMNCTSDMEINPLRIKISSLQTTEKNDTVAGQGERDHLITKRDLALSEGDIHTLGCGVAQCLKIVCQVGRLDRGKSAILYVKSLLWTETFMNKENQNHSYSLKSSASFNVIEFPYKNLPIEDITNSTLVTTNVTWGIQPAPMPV
Sequence (P05106 27-718): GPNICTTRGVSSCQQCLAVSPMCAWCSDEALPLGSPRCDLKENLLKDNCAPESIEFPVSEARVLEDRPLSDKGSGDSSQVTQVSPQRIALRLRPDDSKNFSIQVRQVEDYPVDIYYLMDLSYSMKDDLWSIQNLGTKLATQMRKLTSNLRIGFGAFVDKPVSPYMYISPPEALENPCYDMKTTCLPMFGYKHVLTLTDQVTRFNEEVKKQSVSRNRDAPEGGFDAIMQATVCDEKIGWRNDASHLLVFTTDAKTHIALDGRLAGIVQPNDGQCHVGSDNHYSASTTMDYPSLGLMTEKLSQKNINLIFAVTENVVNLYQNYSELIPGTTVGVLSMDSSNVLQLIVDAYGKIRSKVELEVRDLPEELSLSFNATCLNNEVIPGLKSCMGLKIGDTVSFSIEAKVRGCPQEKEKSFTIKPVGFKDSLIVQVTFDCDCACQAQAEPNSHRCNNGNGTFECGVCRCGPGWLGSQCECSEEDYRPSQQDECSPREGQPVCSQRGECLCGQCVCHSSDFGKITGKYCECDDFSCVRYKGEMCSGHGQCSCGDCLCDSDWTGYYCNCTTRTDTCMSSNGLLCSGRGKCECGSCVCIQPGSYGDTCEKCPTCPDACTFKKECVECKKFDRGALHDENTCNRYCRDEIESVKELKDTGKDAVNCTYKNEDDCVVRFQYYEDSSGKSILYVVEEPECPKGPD
test: biochemical
Type: binding
assay conditions: integrin αVβ3, immobilized vitronectin; ligand range 0.1-22 mM
Could you please report measured pIC50 for the items listed next?
// scale note: pIC50 = -log10(conc_M); give the bare number

Asked: I am curious: what pIC50 value has been reported for `CC(=O)NCC(=O)O` ?
Given back: 2.04

Asked: I am curious: what pIC50 value has been reported for `O=C(O)CNCC(=O)O` ?
Given back: 1.94

Asked: I am curious: what pIC50 value has been reported for `NCP(=O)(O)O` ?
Given back: 2.82

====

Could you please report measured inhibition for the items listed next?
target: integrin αVβ3 (Homo sapiens, UniProt P05106+P06756)
Construct: purchased R&D Systems Inc. (Minneapolis, MN, USA)
test: biochemical
Assay type: binding
assay conditions: integrin αVβ3, immobilized RGD polymer; at 22 mM (highest concentration); read-out: Maximal Inhibition Achieved (converted)
Report only the number, with the unit % understood.

Asked: I am curious: what inhibition value has been reported for NCP(=O)(O)O [Aminomethylphosphonic acid (AMPA), aminomethylphosphonic acid] ?
Given back: 95.9

Asked: I am curious: what inhibition value has been reported for CNCC(=O)O [Sarcosine] ?
Given back: 35

Asked: I am curious: what inhibition value has been reported for O=C(O)CNCP(=O)(O)O [Glyphosate, N-(phosphonomethyl)glycine] ?
Given back: 100

Asked: I am curious: what inhibition value has been reported for O=C(O)CNCC(=O)O [Iminodiacetic acid] ?
Given back: 24.6

Asked: I am curious: what inhibition value has been reported for CC(=O)NCC(=O)O [Acetylglycine] ?
Given back: 46.8

====

target: integrin αVβ3 (Homo sapiens, UniProt P05106+P06756)
Construct: purchased R&D Systems Inc. (Minneapolis, MN, USA)
test: biochemical
Assay type: binding
assay conditions: integrin αVβ3, immobilized vitronectin; ligand range 0.1-22 mM
pIC50: −log10 of the molar value.
Could you please report measured pIC50 for the items listed next?

Asked: I am curious: what pIC50 value has been reported for CC(=O)N(CC(=O)O)CP(=O)(O)O [N-acetylglyphosate] ?
Given back: < 1.66

Asked: I am curious: what pIC50 value has been reported for O=C(O)CNCP(=O)(O)O [Glyphosate, N-(phosphonomethyl)glycine] ?
Given back: < 1.66

Asked: I am curious: what pIC50 value has been reported for `CNCC(=O)O` ?
Given back: < 1.66

Sourced from paper PMC9604064
